Test system: HIV-1 (strain IIIB)
Assay: microbe, parasite or virus in culture
Type: cell-based
Conditions: Human immunodeficiency virus 1, 120 h; MT4 cells infected with HIV-1 strain IIIB, 5 days; lower line of each compound's entry; read-out: IC50 (MT-4 cells)
measuredParameter: IC50

Report IC50 for every entry below.
1. COc1ccc(S(=O)(=O)N(C[C@@H](O)[C@H](Cc2ccccc2)NC(=O)OC(C)(C)C)OC2CCCCC2)cc1 [Compound 23]
2. CC(C)(C)OC(=O)N[C@@H](Cc1ccccc1)[C@H](O)CN(OC1CCCC1)S(=O)(=O)c1ccc2nc(N)[nH]c2c1 [Compound 106]
3. CC(C)(C)OC(=O)N[C@@H](Cc1ccccc1)[C@H](O)CN(OC1CCCC1)S(=O)(=O)c1ccc2[nH]c(NC(=O)CCCl)nc2c1 [Compound 105]
4. COc1ccc(S(=O)(=O)N(C[C@@H](O)[C@H](Cc2ccccc2)NC(=O)OC(C)(C)C)Oc2ccccc2)cc1 [Compound 17]
5. CC(C)(C)ON(C[C@@H](O)[C@H](Cc1ccccc1)NC(=O)O[C@H]1CCOC1)S(=O)(=O)c1ccccc1 [Compound 111]
6. O=C(N[C@@H](Cc1ccccc1)[C@H](O)CN(OC1CCCCC1)S(=O)(=O)c1ccc(O)cc1)O[C@H]1CO[C@H]2OCC[C@H]21 [Example 160]

Reply |
["> 1 µM", "0.1 to 0.5 µM", "≤ 0.1 µM", "> 1 µM", "> 1 µM", "≤ 0.1 µM"]

====

Molecular target: HIV-1 protease (Human immunodeficiency virus type 1 group M subtype B)
Test: biochemical
measuredParameter: Ki

COc1ccc(S(=O)(=O)N(C[C@@H](O)[C@H](Cc2ccccc2)NC(=O)OC(C)(C)C)OCC(C)C)cc1	1 to 10 nM

// input: 7 compounds below; output: Ki for each
1. COc1ccc(S(=O)(=O)N(C[C@@H](O)[C@H](Cc2ccccc2)NC(=O)O[C@H]2CCOC2)OC2CCCCC2)cc1
2. COc1ccc(S(=O)(=O)N(C[C@@H](O)[C@H](Cc2ccccc2)NC(=O)OC(C)(C)C)OC(C)C)cc1
3. COc1ccc(S(=O)(=O)N(C[C@@H](O)[C@H](Cc2ccccc2)NC(=O)OC(C)(C)C)OC2CCCC2)cc1
4. COc1ccc(S(=O)(=O)N(C[C@@H](O)[C@H](Cc2ccccc2)NC(=O)OC2CO[C@H]3OCC[C@@H]23)OCC(C)C)cc1 (some centres unmarked)
5. O=C(N[C@@H](Cc1ccccc1)[C@@H](CN(OC1CCCC1)S(=O)(=O)c1ccc2c(c1)OCCO2)OP(=O)(O)O)O[C@H]1CO[C@H]2OCC[C@H]21
6. COc1ccc(S(=O)(=O)N(C[C@@H](O)[C@H](Cc2ccccc2)NC(=O)[C@H](CC(N)=O)NC(=O)c2ccc3ccccc3n2)OC2CCCCC2)cc1
7. O=C(N[C@@H](Cc1ccccc1)[C@H](O)CN(OC1CCCC1)S(=O)(=O)c1ccc2c(c1)OCCO2)OC1CO[C@H]2OCC[C@@H]12 (some centres unmarked)

Reply |
1: < 1 nM; 2: 10 to 100 nM; 3: 1 to 10 nM; 4: < 1 nM; 5: < 1 nM; 6: < 1 nM; 7: < 1 nM

====

Molecular target: HIV-1 protease (Human immunodeficiency virus type 1 group M subtype B)
Assay: biochemical
Conditions: HIV-1 protease; upper line of each compound's entry; read-out: Ki (enzyme)
Please respond with reported Ki for every item in the list.

COc1ccc(S(=O)(=O)N(C[C@@H](O)[C@H](Cc2ccccc2)NC(=O)OC(C)(C)C)OCC2CCCCO2)cc1 (stereo partly drawn)	10 to 100 nM

Look at each compound and report its Ki.
1. CN(C)C(=O)Nc1nc2cc(S(=O)(=O)N(C[C@@H](O)[C@H](Cc3ccccc3)NC(=O)OC(C)(C)C)OC3CCCC3)ccc2[nH]1
2. CCC(C)ON(C[C@@H](O)[C@H](Cc1ccccc1)NC(=O)OC1COCOC1)S(=O)(=O)c1ccc(OC)cc1 (stereo partly drawn)
3. O=C(N[C@@H](Cc1ccccc1)[C@H](O)CN(OC1CCCC1)S(=O)(=O)c1ccc2nc[nH]c2c1)O[C@H]1CO[C@H]2OCC[C@H]21
4. COc1ccc(S(=O)(=O)N(C[C@@H](O)[C@H](Cc2ccccc2)NC(=O)OC2CO[C@H]3OCC[C@@H]23)OC2CCOCC2)cc1 (stereo partly drawn)
5. CC(C)Oc1cccc(S(=O)(=O)N(C[C@@H](O)[C@H](Cc2ccccc2)NC(=O)OC2CO[C@H]3OCC[C@@H]23)OC2CCCC2)c1 (stereo partly drawn)
6. CC(C)ON(C[C@@H](O)[C@H](Cc1ccccc1)NC(=O)O[C@H]1CO[C@H]2OCC[C@H]21)S(=O)(=O)c1cccc(N(C)C(=O)OC(C)(C)C)c1

Reply |
< 1 nM
< 1 nM
< 1 nM
< 1 nM
< 1 nM
> 100 nM

For each listed entry, give its Ki.
1. O=C(NC(Cc1ccccc1)C(O)CN(OC1CCCC1)S(=O)(=O)c1cccc(NCCO)c1)OC1COC2OCCC12 (stereo not drawn)
2. O=C(N[C@@H](Cc1ccccc1)[C@H](O)CN(OC1CCCC1)S(=O)(=O)c1ccc2cn[nH]c2c1)OC1CO[C@H]2OCC[C@@H]12 (stereo partly drawn)
3. CONC(=O)CNc1cccc(S(=O)(=O)N(CC(O)C(Cc2ccccc2)NC(=O)OC2COC3OCCC23)OC2CCCC2)c1 (mixture of isomers)

Reply |
1. < 1 nM
2. < 1 nM
3. < 1 nM

# return Ki for each item in the list
1. NC(=O)C[C@H](NC(=O)c1ccc2ccccc2n1)C(=O)N[C@@H](Cc1ccccc1)[C@H](O)CN(OC1CCCC1)S(=O)(=O)c1cccc(N)c1
2. CC(C)Oc1ccc(S(=O)(=O)N(C[C@@H](O)[C@H](Cc2ccccc2)NC(=O)OC2CO[C@H]3OCC[C@@H]23)OC2CCCC2)cc1 (stereo partly drawn)

Reply |
["< 1 nM", "< 1 nM"]

====

System: HIV-1 (strain IIIB)
Test: microbe, parasite or virus in culture
Assay type: cell-based
Details: Human immunodeficiency virus 1, 120 h; MT4 cells infected with HIV-1 strain IIIB, 5 days; lower line of each compound's entry; read-out: IC50 (MT-4 cells)
Answer each item with its documented IC50.

Respectfully, I request IC50 for each entry included below.
1. CC(C)ON(C[C@@H](O)[C@H](Cc1ccccc1)NC(=O)O[C@H]1CCOC1)S(=O)(=O)c1cccc(N)c1 [Compound 61]
2. COC(=O)Nc1n[nH]c2ccc(S(=O)(=O)N(C[C@@H](O)[C@H](Cc3ccccc3)NC(=O)OC3COCOC3)OC3CCCC3)cc12 [Compound 104]
3. COC(=O)NCCNc1cccc(S(=O)(=O)N(CC(O)C(Cc2ccccc2)NC(=O)OC2COC3OCCC23)OC2CCCC2)c1 (mixture of isomers) [Compound 124]

Reply |
1. 500 to 1000 nM
2. ≤ 100 nM
3. ≤ 100 nM

====

Target: HIV-1 protease (Human immunodeficiency virus type 1 group M subtype B)
Test: biochemical
Details: HIV-1 protease; upper line of each compound's entry; read-out: Ki (enzyme)
measuredParameter: Ki

Below, each entry is followed by its recorded Ki result.
COc1ccc(S(=O)(=O)N(C[C@@H](O)[C@H](Cc2ccccc2)NC(=O)O[C@@H]2CO[C@H]3OCC[C@H]32)OC2CCCC2)cc1 [Compound 117]	> 100 nM
CCC(C)ON(C[C@@H](O)[C@H](Cc1ccccc1)NC(=O)OC1CCOC1)S(=O)(=O)c1ccc(OC)cc1 (stereo partly drawn) [Compound 67]	< 1 nM
CCC(CC)ON(C[C@@H](O)[C@H](Cc1ccccc1)NC(=O)OC(C)(C)C)S(=O)(=O)c1ccc(OC)cc1 [Example 161]	1 to 10 nM
CC(C)ON(C[C@@H](O)[C@H](Cc1ccccc1)NC(=O)O[C@H]1CO[C@H]2OCC[C@H]21)S(=O)(=O)c1cccc(N)c1 [Compound 38]	< 1 nM
CNc1cccc(S(=O)(=O)N(C[C@@H](O)[C@H](Cc2ccccc2)NC(=O)O[C@H]2CO[C@H]3OCC[C@H]32)OC2CCCC2)c1 [Compound 45]	< 1 nM

Please state, for each entry, its recorded Ki.
1. CC(C)ON(C[C@@H](O)[C@H](Cc1ccccc1)NC(=O)OC(C)(C)C)S(=O)(=O)c1ccc(N)c(N)c1 [Compound 2]
2. COc1cc(C(=O)Nc2nc3cc(S(=O)(=O)N(C[C@@H](O)[C@H](Cc4ccccc4)NC(=O)OC(C)(C)C)OC4CCCC4)ccc3[nH]2)cc(OC)c1OC [Compound 12]
3. COc1ccc(S(=O)(=O)N(C[C@@H](O)[C@H](Cc2ccccc2)NC(=O)O[C@H]2CCOC2)OC2CCCC2)cc1 [Compound 47]

Reply |
1. 10 to 100 nM
2. > 10 nM
3. < 1 nM

Required: Ki, one value per compound below.
1. CCC(CC)ON(C[C@@H](O)[C@H](Cc1ccccc1)NC(=O)O[C@H]1CO[C@H]2OCC[C@H]21)S(=O)(=O)c1ccc(N)cc1 [Example 163]
2. O=C(N[C@@H](Cc1ccccc1)[C@H](O)CN(OC1CCCC1)S(=O)(=O)c1ccc(OCCO)cc1)O[C@H]1CO[C@H]2OCC[C@H]21 [Compound 42]
3. O=C(N[C@@H](Cc1ccccc1)[C@H](O)CN(OC1CCCC1)S(=O)(=O)c1ccc2[nH]ncc2c1)O[C@H]1CCOC1 [Compound 56]
4. CC(C)COC(=O)N(CC(=O)NCCO)c1cccc(S(=O)(=O)N(CC(O)C(Cc2ccccc2)NC(=O)OC2COC3OCCC23)OC2CCCC2)c1 (stereo not drawn) [Compound 37]
5. Nc1cccc(S(=O)(=O)N(C[C@@H](OP(=O)(O)O)[C@H](Cc2ccccc2)NC(=O)O[C@H]2CO[C@H]3OCC[C@H]32)OC2CCCC2)c1 [Compound 100]
6. CCC(C)ON(C[C@@H](O)[C@H](Cc1ccccc1)NC(=O)OC1CO[C@H]2OCC[C@@H]12)S(=O)(=O)c1ccc(OC)cc1 (stereo partly drawn) [Compound 68]

Reply |
1. < 1 nM
2. < 1 nM
3. < 1 nM
4. < 1 nM
5. 10 to 100 nM
6. < 1 nM

For each entry beneath this line, provide reported Ki.
1. O=C(N[C@@H](Cc1ccccc1)[C@H](O)CN(OC1CCCC1)S(=O)(=O)c1ccc2cn[nH]c2c1)OC1COCOC1 [Compound 60]
2. Nc1cccc(S(=O)(=O)N(C[C@@H](O)[C@H](Cc2ccccc2)NC(=O)O[C@H]2CO[C@H]3OCC[C@H]32)OC2CCOCC2)c1 [Compound 147]
3. COc1ccc(S(=O)(=O)N(C[C@@H](O)[C@H](Cc2ccccc2)NC(=O)OC2COCOC2)OC2CCOCC2)cc1 [Compound 74]
4. COc1ccc(S(=O)(=O)N(C[C@@H](O)[C@H](Cc2ccccc2)NC(=O)OC2CO[C@H]3OCC[C@@H]23)OC2CCCC2)cc1OC (stereo partly drawn) [Compound 140]
5. CC(C)ON(C[C@@H](O)[C@H](Cc1ccccc1)NC(=O)O[C@H]1CCOC1)S(=O)(=O)c1ccc2[nH]cnc2c1 [Compound 63]

Reply |
1. < 1 nM
2. < 1 nM
3. < 1 nM
4. < 1 nM
5. 1 to 10 nM

Provide Ki for all items below, preserving their order.
1. CCOC(=O)CNC(=O)NCCNc1cccc(S(=O)(=O)N(CC(O)C(Cc2ccccc2)NC(=O)OC2COC3OCCC23)OC2CCCC2)c1 (mixture of isomers) [Compound 113]
2. CC(C)ON(CC(O)C(Cc1ccccc1)NC(=O)OC1COC2OCCC12)S(=O)(=O)c1ccc2nc(NS(C)(=O)=O)n(Cc3ccccc3)c2c1 (stereo not drawn) [Compound 118]
3. CC(C)(C)OC(=O)N[C@@H](Cc1ccccc1)[C@H](O)CN(OC1CCCC1)S(=O)(=O)c1ccc2[nH]c(NC(=O)CCCl)nc2c1 [Compound 105]
4. O=C(O)CNc1cccc(S(=O)(=O)N(CC(O)C(Cc2ccccc2)NC(=O)OC2COC3OCCC23)OC2CCCC2)c1 (stereo not drawn) [Compound 35]
5. CC(C)(C)ON(C[C@@H](O)[C@H](Cc1ccccc1)NC(=O)O[C@H]1CCOC1)S(=O)(=O)c1ccccc1 [Compound 111]

Reply |
["< 1 nM", "> 100 nM", "< 1 nM", "< 1 nM", "1 to 10 nM"]

Origin of values: patent US20040097594A1
